- Tested on: super sensitive Gram-negative Escherichia coli (E. coli) BAS849
- protocol: Antibacterial activity, microbroth dilution MIC, E. coli BAS849
- Format: cell-based
- test_conditions: Escherichia coli; E. coli BAS849, microbroth dilution; read-out: MIC, BAS849
Structures can show the parent of a compound that is named as a salt.
Record form. Attribute: MIC. Fill in for each entry.

Ask | Sample CCc1c(-c2ccc(N3CCOCC3)cn2)[nH]c(=O)c(C(=O)O)c1O — what was its MIC?
Reply | < 1 µg/mL

Ask | Sample CCc1c(-c2ccc(C3CCN(CC)CC3)cc2)[nH]c(=O)c(C(=O)O)c1O — what was its MIC?
Reply | 3.5 to 12.5 µg/mL

Ask | Sample CCc1c(-c2ccc(N3C[C@H]4CCC[C@@H](NC)[C@H]4C3)cc2)[nH]c(=O)c(C(=O)O)c1O.Cl — what was its MIC?
Reply | < 1 µg/mL

Ask | Sample CCc1cc(C(=O)O)c(=O)[nH]c1-c1ccc(N2CC[C@@H](O)C2)cc1F — what was its MIC?
Reply | < 1 µg/mL

Ask | Sample CCc1cc(C(=O)O)c(=O)[nH]c1-c1ccc(C)cc1 — what was its MIC?
Reply | < 1 µg/mL

Ask | Sample CCc1cc(C(=O)O)c(=O)[nH]c1-c1ccc(N2C[C@H]3CNC[C@H]3C2)cc1.Cl — what was its MIC?
Reply | 3.5 to 12.5 µg/mL

Ask | Sample CCc1cc(C(=O)O)c(=O)[nH]c1-c1ccc(N2CCC(CNCc3cccnc3)C2)cc1 (centres unmarked) — what was its MIC?
Reply | < 1 µg/mL

Ask | Sample CCc1c(-c2ccc(NC)cc2)[nH]c(=O)c(C(=O)O)c1O — what was its MIC?
Reply | < 1 µg/mL

Ask | Sample CCc1cc(C(=O)O)c(=O)[nH]c1-c1ccc(-c2nnn[nH]2)cc1 — what was its MIC?
Reply | 12.5 to 150 µg/mL

Ask | Sample CCc1c(-c2ccc(N3CCCC3)c(OC)c2)[nH]c(=O)c(C(=O)O)c1O — what was its MIC?
Reply | 3.5 to 12.5 µg/mL

Ask | Sample CCc1cc(C(=O)O)c(=O)[nH]c1-c1ccc(N(C)C)cc1C — what was its MIC?
Reply | 12.5 to 150 µg/mL

Ask | Sample Cc1cc(N2C[C@@H]3[C@@H](N)[C@@H]3C2)ccc1-c1[nH]c(=O)c(C(=O)O)c(O)c1C — what was its MIC?
Reply | 3.5 to 12.5 µg/mL

Ask | Sample CN(C)c1ccc(-c2[nH]c(=O)c(C(=O)O)c(O)c2C2CC2)cc1 — what was its MIC?
Reply | 1 to 3.5 µg/mL

Ask | Sample CCc1cc(C(=O)O)c(=O)[nH]c1-c1ccc(N2CCC(CNCc3ccc(F)cc3)C2)cc1 (centres unmarked) — what was its MIC?
Reply | < 1 µg/mL

Ask | Sample CCc1cc(C(=O)O)c(=O)[nH]c1-c1ccc(N(C)C)cc1OC — what was its MIC?
Reply | 12.5 to 150 µg/mL

Ask | Sample CCc1c(-c2ccc(N3CCC(N)CC3)cc2)[nH]c(=O)c(C(=O)O)c1O — what was its MIC?
Reply | 3.5 to 12.5 µg/mL

Ask | Sample CCc1cc(C(=O)O)c(=O)[nH]c1-c1ccccc1N(C)C — what was its MIC?
Reply | 12.5 to 150 µg/mL

Ask | Sample C=CCN(CC=C)c1ccc(-c2[nH]c(=O)c(C(=O)O)c(O)c2CC)cc1 — what was its MIC?
Reply | 1 to 3.5 µg/mL

Ask | Sample Cc1c(-c2ccc(N3CCC(N(C)C)C3)cn2)[nH]c(=O)c(C(=O)O)c1O (centres unmarked) — what was its MIC?
Reply | 12.5 to 150 µg/mL

Ask | Sample CCc1cc(C(=O)O)c(=O)[nH]c1-c1ccc(N2CCC(CNCc3cccc(F)c3)C2)cc1 (centres unmarked) — what was its MIC?
Reply | < 1 µg/mL

Ask | Sample CN(C)c1ccc(-c2[nH]c(=O)c(C(=O)O)cc2C2CC2)cc1 — what was its MIC?
Reply | < 1 µg/mL

Ask | Sample CCc1c(-c2ccc(OC)cc2N(C)C)[nH]c(=O)c(C(=O)O)c1O — what was its MIC?
Reply | 3.5 to 12.5 µg/mL

Ask | Sample O=C(O)c1cc(C(=O)O)c(=O)[nH]c1-c1ccc(F)cc1 — what was its MIC?
Reply | 12.5 to 150 µg/mL

Ask | Sample CCc1c(-c2ccc(N3C[C@H]4CCC[C@H](N)[C@H]4C3)cc2)[nH]c(=O)c(C(=O)O)c1O.Cl — what was its MIC?
Reply | < 1 µg/mL

Ask | Sample CCc1cc(C(=O)O)c(=O)[nH]c1-c1ccc(N(C)CCN(C)C)cc1 — what was its MIC?
Reply | < 1 µg/mL

Ask | Sample CCc1cc(C(=O)O)c(=O)[nH]c1-c1ccc(N2C[C@H]3CN(Cc4ccccc4)C[C@H]3C2)cc1.Cl — what was its MIC?
Reply | 1 to 3.5 µg/mL

Ask | Sample CCc1cc(C(=O)O)c(=O)[nH]c1-c1ccc(OC)cc1 — what was its MIC?
Reply | < 1 µg/mL

Ask | Sample CCc1c(-c2cnn(C)c2)[nH]c(=O)c(C(=O)O)c1O — what was its MIC?
Reply | 1 to 3.5 µg/mL

Ask | Sample CN(C)c1ccc(-c2[nH]c(=O)c(C(=O)O)c(O)c2CO)cc1 — what was its MIC?
Reply | 1 to 3.5 µg/mL

Ask | Sample CCc1c(-c2ccc(NCCCI)cc2)[nH]c(=O)c(C(=O)O)c1O — what was its MIC?
Reply | 3.5 to 12.5 µg/mL

Ask | Sample CCc1c(-c2cnc(N(C)C)nc2)[nH]c(=O)c(C(=O)O)c1O — what was its MIC?
Reply | 12.5 to 150 µg/mL

Ask | Sample CCc1cc(C(=O)OC)c(=O)[nH]c1-c1ccc(N2CCC(OCc3ccccc3)C2)cc1 (centres unmarked) — what was its MIC?
Reply | 12.5 to 150 µg/mL

Ask | Sample CCc1c(-c2ccc(N3CCC(OCc4ccccc4)CC3)cc2)[nH]c(=O)c(C(=O)O)c1O — what was its MIC?
Reply | 3.5 to 12.5 µg/mL

Ask | Sample CCc1c(-c2ccc(N3C[C@@H]4[C@H](C3)[C@H]4NC)cc2)[nH]c(=O)c(C(=O)O)c1O [Cpd 270, hydrochloride] — what was its MIC?
Reply | < 1 µg/mL

Ask | Sample CCc1cc(C(=O)O)c(=O)[nH]c1-c1ccc(N2CCC[C@@H](O)C2)cc1 — what was its MIC?
Reply | < 1 µg/mL
